System: NLuc-UAG PTC
protocol.notes: NanoLuc nonsense reporter screen (all-in-one HTC plasmid), TAG/UAG PTC, HEK293 cells
Format: cell-based, human
recorded.conditions: Table 5, Glu TAG
Description: In order to enable the identification of the nucleotide composition and functional ability to suppress nonsense codons by new types of tRNA, an All-In-One Plasmid With A One Pot Cloning Reaction was invented for High Throughput Cloning FIG. 11. This approach enables the facile investigation of ACE-tRNA activity via luciferase activity in a standard 96 well format. […]
property.name: Ranking

# molecule, property.name, result.value
records = [
    ("GluTAGchr1.trna123: ACE-tRNA Glu, TAG suppressor, SEQ ID NO: 40 (nucleic acid, expressed or natural sequence) CGTCTCCCTGGTGGTCTAGTGGCTAGGATTCGGCGCTCTAACCGCCGCGGCCCGGGTTCGATTCCCGGTCAGGGAA", "Ranking", "#3"),
    ("GluTAGchr1.trna106: ACE-tRNA Glu, TAG suppressor, SEQ ID NO: 41 (nucleic acid, expressed or natural sequence) CGTCTCCCTGGTGGTCTAGTGGTTAGGATTCGGCGCTCTAACCGCCGCGGCCCGGGTTCGATTCCCGGTCAGGGAA", "Ranking", "#4"),
    ("GluTAGchr2.trna18: ACE-tRNA Glu, TAG suppressor, SEQ ID NO: 39 (nucleic acid, expressed or natural sequence) CGTCTCCCATATGGTCTAGCGGTTAGGATTCCTGGTTCTAACCCAGGTGGCCCGGGTTCGACTCCCGGTATGGGAA", "Ranking", "#2"),
    ("GluTAGchr13.trna2: ACE-tRNA Glu, TAG suppressor, SEQ ID NO: 38 (nucleic acid, expressed or natural sequence) CGTCTCCCACATGGTCTAGCGGTTAGGATTCCTGGTTCTAACCCAGGCGGCCCGGGTTCGACTCCCGGTGTGGGAA", "Ranking", "#1"),
]
